Hello, the source for this data is the supplement of paper PMC6555819, in case you need it.

Tested on: VDR homodimer (NR concentration 270 nM)
Test: PBM binding z-score (relative to random genomic background probes); higher = stronger binding; sequences stand for … in GC…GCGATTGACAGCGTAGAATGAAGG
Measured PBM binding z-score, listed per entry.
Hey, just send me the number, nothing else.

Name the recorded PBM binding z-score for GCAGACAGGTGAAACGTAGGTAACTCAGGGTGGC .
-0.684

Further cases:
Item under review: GCGATTGGGGCATCAGCAGGTTACCATAACTTAA . Reported PBM binding z-score?
-0.374

Please look up its PBM binding z-score: CCGACTGGGGTAAAGGTTACCATACTCAGTACGA
0.207
